Answer each item with its documented Abs 630 (100 nM).
tested-target: T1, human IL-10 receptor (hIL-10R alpha and beta chains) on HEK-Blue IL-10 reporter cells (human, UniProt Q13651 22-578; Q08334 20-325)
T1 sequence 1: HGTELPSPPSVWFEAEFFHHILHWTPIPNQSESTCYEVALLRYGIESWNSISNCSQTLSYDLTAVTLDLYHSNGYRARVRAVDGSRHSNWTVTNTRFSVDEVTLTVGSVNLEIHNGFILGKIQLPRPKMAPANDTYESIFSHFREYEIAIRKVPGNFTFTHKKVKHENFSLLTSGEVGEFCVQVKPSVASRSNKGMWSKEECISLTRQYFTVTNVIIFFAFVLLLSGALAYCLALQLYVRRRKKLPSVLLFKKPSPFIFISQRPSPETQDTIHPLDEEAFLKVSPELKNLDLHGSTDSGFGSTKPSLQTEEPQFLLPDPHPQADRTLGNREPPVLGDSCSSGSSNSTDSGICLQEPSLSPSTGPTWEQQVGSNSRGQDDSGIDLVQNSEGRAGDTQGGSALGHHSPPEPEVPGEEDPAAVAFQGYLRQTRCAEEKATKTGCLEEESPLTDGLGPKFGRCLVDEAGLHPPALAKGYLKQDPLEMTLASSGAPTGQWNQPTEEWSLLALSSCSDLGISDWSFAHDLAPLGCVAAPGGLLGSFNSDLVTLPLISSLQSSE
T1 sequence 2: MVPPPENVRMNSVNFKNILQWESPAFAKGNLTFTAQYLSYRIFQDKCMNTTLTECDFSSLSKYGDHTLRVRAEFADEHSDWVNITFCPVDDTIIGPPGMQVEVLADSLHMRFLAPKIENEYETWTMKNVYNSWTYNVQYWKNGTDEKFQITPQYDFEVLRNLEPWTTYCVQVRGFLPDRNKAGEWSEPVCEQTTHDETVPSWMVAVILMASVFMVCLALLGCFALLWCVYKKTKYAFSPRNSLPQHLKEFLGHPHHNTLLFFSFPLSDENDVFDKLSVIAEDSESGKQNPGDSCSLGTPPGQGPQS
experimental-details: cell-based or functional assay

[
  {
    "binder": "IL10R binding molecule of SEQ ID NO: 269 (bispecific antibody) QVQLQESGGGSVQAGGSLRLSCAASRFTYSSYCMGWFRQAPGKEREGVASIDSDGSTSYTDSVKGRFTISKDNAKNTLYLQMNSLKPEDTAMYYCALDLMSTVVPGFCGFLLSAGMDYWGKGTQVTVSSGGGSQVQLQESGGGSVQTGGSLRLSCAASGYTYLRGCMGWFRQAPGKEREGVAVMDVVGDRRSYIDSVKGRFTISRDNAANSVYLQMDNLKPEDTAMYYCTAGPNCVGWRSGLDYWGQGTQVTVSSASHHHHHH",
    "Abs 630 (100 nM)": "0.37 Abs 630"
  }
]

Please state, for each entry, its recorded Abs 630 (100 nM).
1. wild-type human IL-10 (Recombinant Animal-Free Human IL-10, Shenandoah Biotechnology) (ligand) SPGQGTQSENSCTHFPGNLPNMLRDLRDAFSRVKTFFQMKDQLDNLLLKESLLEDFKGYLGCQALSEMIQFYLEEVMPQAENQDPDIKAHVNSLGENLKTLRLRLRRCHRFLPCENKSKAVEQVKNAFNKLQEKGIYKAMSEFDIFINYIEAYMTMKIRN
2. IL10R binding molecule of SEQ ID NO: 263 (bispecific antibody) QVQLQESGGGSVQAGGSLRLSCAASRFTYSSYCMGWFRQAPGKEREGVASIDSDGSTSYTDSVKGRFTISKDNAKNTLYLQMNSLKPEDTAMYYCALDLMSTVVPGFCGFLLSAGMDYWGKGTQVTVSSGGGSQVQLQESGGGSVQAGGSLRLSCAASGYTYSSGCMGWFRQAPGKEREAVAAINSDGSTSYADSVKGRFTISKDNAKNTLYLQMNSLKPEDTAMYYCAAEPYCSGGYPRWSVAEFGYWGQGTQVTVSSASHHHHHH

Resp:
2.04 Abs 630
1.02 Abs 630

Reference source for all entries: patent US20250163167A1
